# Test system: Caenorhabditis elegans N2
# Assay notes: food intake (mean delta OD600 / animal over 72 h) with 50 uM loxapine co-treatment (OD600 units per animal); higher = more food eaten (less suppression of loxapine-induced hyperphagia)
# Assay conditions: first compound 33 µM, loxapine concentration 50 µM
Counter-ions that a name gives are not always drawn.
food intake values, listed per item
Please give the numeric answer without any surrounding text.

Worked examples follow.
compound="OCCN1C[C@H](O)[C@@H](O)[C@H](O)[C@H]1CO [miglitol] + CN1CCN(C2=Nc3ccccc3Oc3ccc(Cl)cc32)CC1" result_number=0.0214
compound="COC(=O)/C=C/C(=O)OC [dimethyl fumarate] + CN1CCN(C2=Nc3ccccc3Oc3ccc(Cl)cc32)CC1" result_number=0.0218
compound="C=CC[N+]1([C@H]2C[C@H]3[C@@H]4CC[C@H]5C[C@H](O)[C@@H](N6CCOCC6)C[C@]5(C)[C@H]4CC[C@]3(C)[C@H]2OC(C)=O)CCCC1 [rocuronium (bromide)] + CN1CCN(C2=Nc3ccccc3Oc3ccc(Cl)cc32)CC1" result_number=0.0231
compound="C[C@H]1c2cccc(O)c2C(=O)C2=C(O)[C@]3(O)C(=O)C(C(N)=O)=C(O)[C@@H](N(C)C)[C@@H]3[C@@H](O)[C@@H]21 [doxycycline] + CN1CCN(C2=Nc3ccccc3Oc3ccc(Cl)cc32)CC1" result_number=0.0161
compound="CN(Cc1cnc2nc(N)nc(N)c2n1)c1ccc(C(=O)N[C@@H](CCC(=O)O)C(=O)O)cc1 [methotrexate] + CN1CCN(C2=Nc3ccccc3Oc3ccc(Cl)cc32)CC1" result_number=0.0222

Query: I would be grateful if you could share the reported food intake for O=C(O)CCNC(=O)c1ccccc1 [betamipron] + CN1CCN(C2=Nc3ccccc3Oc3ccc(Cl)cc32)CC1 .
Result: 0.0228

Query: I would be grateful if you could share the reported food intake for CC(C)(C)C(=O)C(Oc1ccc(Cl)cc1)n1ccnc1 (stereo not drawn) [climbazole] + CN1CCN(C2=Nc3ccccc3Oc3ccc(Cl)cc32)CC1 .
Result: 0.0235

Query: I would be grateful if you could share the reported food intake for CS(=O)(=O)c1ccc([C@@H](O)[C@@H](CO)NC(=O)C(Cl)Cl)cc1 [thiamphenicol] + CN1CCN(C2=Nc3ccccc3Oc3ccc(Cl)cc32)CC1 .
Result: 0.0228

Query: I would be grateful if you could share the reported food intake for CC(C)[C@H](N)C(=O)OCCOCn1cnc2c(=O)nc(N)[nH]c21 [valacyclovir (hydrochloride)] + CN1CCN(C2=Nc3ccccc3Oc3ccc(Cl)cc32)CC1 .
Result: 0.0213

Query: I would be grateful if you could share the reported food intake for O=C([O-])c1ccccc1O.[Na+] [sodium salicylate] + CN1CCN(C2=Nc3ccccc3Oc3ccc(Cl)cc32)CC1 .
Result: 0.0224

Query: I would be grateful if you could share the reported food intake for Cc1cc(C)cc(OCC2CNC(=O)O2)c1 (stereo not drawn) [metaxalone] + CN1CCN(C2=Nc3ccccc3Oc3ccc(Cl)cc32)CC1 .
Result: 0.0236

Query: I would be grateful if you could share the reported food intake for CC[C@@H]([C@H](C)O)n1ncn(-c2ccc(N3CCN(c4ccc(OC[C@@H]5CO[C@@](Cn6cncn6)(c6ccc(F)cc6F)C5)cc4)CC3)cc2)c1=O [Posaconazole] + CN1CCN(C2=Nc3ccccc3Oc3ccc(Cl)cc32)CC1 .
Result: 0.023

Query: I would be grateful if you could share the reported food intake for CC(C)Cc1ccc(C(C)C(=O)O)cc1 (stereo not drawn) [ibuprofen] + CN1CCN(C2=Nc3ccccc3Oc3ccc(Cl)cc32)CC1 .
Result: 0.0222

Query: I would be grateful if you could share the reported food intake for CN(C)c1cc(NC(=O)CNC(C)(C)C)c(O)c2c1C[C@H]1C[C@H]3[C@H](N(C)C)C(O)=C(C(N)=O)C(=O)[C@@]3(O)C(O)=C1C2=O [tigecycline] + CN1CCN(C2=Nc3ccccc3Oc3ccc(Cl)cc32)CC1 .
Result: 0.0234
